# credit: ChEMBL document CHEMBL1201862

- Tested on: LOX IMVI
- Assay protocol: NCI tumour cell line growth inhibition, 48 h
Calls of active or inactive are those of the source. Cut-off read from the data, not from the text of the source: active = GI50 up to about 1.1 µM and inactive = higher.
Below, each of the molecules is paired with its reported GI50 value.

QUERY: Given O=C(O)c1cc(N(Cc2ccccc2O)Cc2cc(O)ccc2O)ccc1O [LAVENDUSTIN A] , state its recorded GI50.
RESULT: 34.9 µM (inactive)

QUERY: Given "COc1ccc(-n2c(N)c(C#N)[nH]c2=O)cc1" , state its recorded GI50.
RESULT: 1.79 µM (inactive)

QUERY: Given CCC(C)CN1C(=O)NC(C)(Cc2ccccc2)C1=O (stereo unspecified) , state its recorded GI50.
RESULT: > 100 µM (inactive)

QUERY: Given O=C(O)C[S+]([O-])c1ccc2c3c(cccc13)C(=O)c1ccccc1-2 (stereo unspecified) , state its recorded GI50.
RESULT: > 100 µM (inactive)

QUERY: Given C1CCC(OC2CSC2)OC1 (stereo unspecified) , state its recorded GI50.
RESULT: > 100 µM (inactive)

QUERY: Given "Nc1nc2[nH]cnc2c(=O)[nH]1" , state its recorded GI50.
RESULT: > 100 µM (inactive)

---
QUERY: Given COc1cc2c(c(OC)c1OC)-c1ccc(SC)cc1C(O)CC2 (stereo unspecified) , state its recorded GI50.
RESULT: < 0.01 µM (active)

QUERY: Given CSCCCNC(=O)[C@H](CSC)NC(=O)c1csc(CCNC(=O)[C@@H](NSc2ccccc2[N+](=O)[O-])C(C)O)n1 (stereo partly specified) , state its recorded GI50.
RESULT: > 100 µM (inactive)
